- Test system: A549
- Experiment: Cytotoxicity against human A549 cells by MTT assay
- Type: functional, cell-based
Please go through the items and note down their IC50.
Answers are plain numbers, in µM.

1. C=C1C(=O)[C@]23C[C@@]1(F)CC[C@H]2[C@@]12C=CC(=O)[C@](C)(C(=O)O1)[C@H]2[C@@H]3C(=O)OC 38.9
2. C=C1C(=O)[C@]23C[C@@]1(I)CC[C@H]2[C@@]12C=CC(=O)[C@](C)(C(=O)O1)[C@H]2[C@@H]3C(=O)OC 53.2
3. C=C1C(=O)[C@]23C[C@@]1(F)CC[C@H]2[C@@]12C=CC(=O)[C@](C)(C(=O)O1)[C@H]2[C@@H]3C(=O)OCc1ccccc1 64.4
4. C=C1C(=O)[C@]23C[C@@]1(Cl)CC[C@H]2[C@@]12C=CC(=O)[C@](C)(C(=O)O1)[C@H]2[C@@H]3C(=O)OCc1ccccc1 28.8

Respectfully, I request IC50 for each entry included below.
1. CC[C@]1(O)C[C@H]2CN(CCc3c([nH]c4ccccc34)[C@@](C(=O)OC)(c3cc4c(cc3OC)N(C=O)[C@H]3[C@@](O)(C(=O)OC)[C@H](OC(C)=O)[C@]5(CC)C=CCN6CC[C@]43[C@@H]65)C2)C1
2. C=C1C(=O)[C@]23C[C@@]1(I)CC[C@H]2[C@@]12C=CC(=O)[C@](C)(C(=O)O1)[C@H]2[C@@H]3C(=O)OCc1ccccc1

1. 2.5
2. 46
